# Tested on: IICR (IP3 induced calcium release) in CHO cells
# ASSAY: Assay of IICR (IP3 induced calcium release)-inhibiting action
# Format: cell-based, Chinese hamster
# STATED_CONDITIONS: Cricetulus griseus, CHO, test compound 100 μmol; CHO cells, 10 μM ATP; read-out: IICR level (percentage of inhibition)
ENDPOINT_LABEL: inhibition at 100 µM (%)
Give just the number in %; leave the unit off.

stdin: Query inhibition at 100 µM on IICR (IP3 induced calcium release) in CHO cells for Cc1ccc(C(=O)CCN(CCO)C(C)(C)C)o1 [Example 240]
stdout: 50

stdin: Observed inhibition at 100 µM on IICR (IP3 induced calcium release) in CHO cells for O=C(CCN(CCO)CCO)c1cnccn1 [Example 102] , please.
stdout: 100

stdin: Please tell me: inhibition at 100 µM of CC(C)(C)N(CCO)CCC(=O)c1cccs1 [Example 246] , system IICR (IP3 induced calcium release) in CHO cells?
stdout: 0

stdin: Request: inhibition at 100 µM, test system IICR (IP3 induced calcium release) in CHO cells, entry CN(CCO)CCC(=O)c1ccco1 [Example 235]
stdout: 80

stdin: Report inhibition at 100 µM for CCc1nccnc1C(=O)CCN(CCO)CCO [Example 260] tested on IICR (IP3 induced calcium release) in CHO cells.
stdout: 20

stdin: Please provide the recorded inhibition at 100 µM for CC(C)N(CCCC(=O)c1ccccc1)Cc1ccccc1 [Example 179] , tested on IICR (IP3 induced calcium release) in CHO cells.
stdout: 0

stdin: # value lookup — system IICR (IP3 induced calcium release) in CHO cells, readout inhibition at 100 µM, item O=C(CCNCCCCNCCC(=O)c1cnccn1)c1cnccn1 [Example 276]
stdout: 20

stdin: // lookup inhibition at 100 µM | system=IICR (IP3 induced calcium release) in CHO cells | key= CCCCN(CCO)CCC(=O)c1ccco1 [Example 234]
stdout: 80

stdin: Lab request: please report inhibition at 100 µM under test system IICR (IP3 induced calcium release) in CHO cells for Cc1ccc(C(=O)CCN(Cc2ccccc2)C(C)(C)C)s1 [Example 316]
stdout: 100

stdin: IICR (IP3 induced calcium release) in CHO cells / inhibition at 100 µM / CC(C)(C)N(CCC(=O)c1ccco1)Cc1ccccc1 [Example 121] : value?
stdout: 100

stdin: Tell me reported inhibition at 100 µM for CN1CCN(CCC(=O)c2ccccc2)CC1 [Example 131, 2-(N-methylpiperazyl)ethylphenylketone] , tested with IICR (IP3 induced calcium release) in CHO cells.
stdout: 50

stdin: Return inhibition at 100 µM measured with IICR (IP3 induced calcium release) in CHO cells given this molecule: CCCCN(CCO)CCC(=O)c1ccc2c(Cl)cccc2c1 [Example 91]
stdout: 100

stdin: inhibition at 100 µM of O=C(CCNCCO)c1ccco1 [Example 275] on IICR (IP3 induced calcium release) in CHO cells?
stdout: 30

stdin: Hello, I am looking for reported inhibition at 100 µM with IICR (IP3 induced calcium release) in CHO cells for O=C(CCNCCN(CCO)CCC(=O)c1ccc(Br)s1)c1ccc(Br)s1 [Example 354] . Could you help?
stdout: 60

stdin: What inhibition at 100 µM appears in the records for this molecule with IICR (IP3 induced calcium release) in CHO cells? CC(C)N(CCC(=O)c1ccc(F)cc1)Cc1ccccc1 [Example 212]
stdout: 30

stdin: Field: inhibition at 100 µM (IICR (IP3 induced calcium release) in CHO cells). Entry: O=C(CCN(CCO)CCO)c1ccccn1 [Example 243]
stdout: 50

stdin: Can you look up inhibition at 100 µM on IICR (IP3 induced calcium release) in CHO cells for CCCCN(CCC(=O)c1ccc(Br)cc1)Cc1ccccc1 [Example 375] ?
stdout: 0

stdin: Query inhibition at 100 µM on IICR (IP3 induced calcium release) in CHO cells for Cc1ccc(C(=O)CCN(Cc2ccccc2)C(C)C)s1 [Example 318]
stdout: 80

stdin: Requested read-out inhibition at 100 µM, target or system IICR (IP3 induced calcium release) in CHO cells, entry O=C(CCN(CCO)CCO)c1ccc(I)s1 [Example 320]
stdout: 70

stdin: Short answer please: inhibition at 100 µM, IICR (IP3 induced calcium release) in CHO cells, entry COC(=O)C(CSSCC(NCCC(=O)c1ccc(C#N)cc1)C(=O)OC)NCCC(=O)c1ccc(C#N)cc1 (stereo not drawn) [Example 399]
stdout: 70

stdin: Hi! What's the reported inhibition at 100 µM for Cc1ccc(C(=O)CCN(C)Cc2ccccc2)o1 [Example 241] on IICR (IP3 induced calcium release) in CHO cells?
stdout: 70
